Taken from patent US20100172907A1.

- TARGET ENTITY: T1, BSA-conjugated Aβ heptapeptide FFAEDVC (C-terminal Cys coupled to NSMP-activated BSA);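 also: ELISA of antibody at 10 or 2 µg/ml binding plate-coated BSA–peptide conjugates, detected with HRP anti-human Ig and TMB colour, mock-treated BSA without peptide as negative control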
- T1 construct: also called Peptide 19-24
- T1 peptide: FFAEDVC
- TEST PROTOCOL: ELISA
Entries and their Peptide-ratio 19-24/2-7
Please respond with just the number, no unit label.

The following binders have reported results that may help.
MS-Roche #7.9.H1 Fab (Fab, V domains shown, assembled) VH: QVQLVESGGGLVQPGGSLRLSCAASGFTFSSYAMSWVRQAPGKGLEWVSAINANGQRKFYADSVKGRFTISRDNSKNTLYLQMNSLRAEDTAVYYCARGKGNTHKPYGYVRYFDVWGQGTLVTVSS VL: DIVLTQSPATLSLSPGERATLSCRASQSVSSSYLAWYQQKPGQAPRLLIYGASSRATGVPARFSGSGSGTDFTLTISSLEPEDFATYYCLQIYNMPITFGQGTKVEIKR    0.19
MS-Roche #7.11.H2 Fab (Fab, V domains shown) VH: QVQLVESGGGLVQPGGSLRLSCAASGFTFSSYAMSWVRQAPGKGLEWVSAINANGYKKYYADSVKGRFTISRDNSKNTLYLQMNSLRAEDTAVYYCARGKGNTHKPYGYVRYFDVWGQGTLVTVSS VL: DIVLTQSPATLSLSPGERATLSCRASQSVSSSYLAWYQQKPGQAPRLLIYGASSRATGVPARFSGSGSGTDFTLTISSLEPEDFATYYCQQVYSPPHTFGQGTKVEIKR    0.41

Let's switch to this binder now.
Field Peptide-ratio 19-24/2-7 (entry MS-Roche #7.2.H1 Fab (Fab, V domains shown) VH: QVQLVESGGGLVQPGGSLRLSCAASGFTFSSYAMSWVRQAPGKGLEWVSAINANGLKKYYADSVKGRFTISRDNSKNTLYLQMNSLRAEDTAVYYCARGKGNTHKPYGYVRYFDVWGQGTLVTVSS VL: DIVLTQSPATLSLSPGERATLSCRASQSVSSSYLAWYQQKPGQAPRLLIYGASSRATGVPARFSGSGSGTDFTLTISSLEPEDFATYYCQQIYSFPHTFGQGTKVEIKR ) reads 0.24
